Molecular target: Decaprenylphosphoryl-beta-D-ribose oxidase (Mycobacterium tuberculosis (strain ATCC 25618 / H37Rv))
Sequence (P9WJF1 whole entry): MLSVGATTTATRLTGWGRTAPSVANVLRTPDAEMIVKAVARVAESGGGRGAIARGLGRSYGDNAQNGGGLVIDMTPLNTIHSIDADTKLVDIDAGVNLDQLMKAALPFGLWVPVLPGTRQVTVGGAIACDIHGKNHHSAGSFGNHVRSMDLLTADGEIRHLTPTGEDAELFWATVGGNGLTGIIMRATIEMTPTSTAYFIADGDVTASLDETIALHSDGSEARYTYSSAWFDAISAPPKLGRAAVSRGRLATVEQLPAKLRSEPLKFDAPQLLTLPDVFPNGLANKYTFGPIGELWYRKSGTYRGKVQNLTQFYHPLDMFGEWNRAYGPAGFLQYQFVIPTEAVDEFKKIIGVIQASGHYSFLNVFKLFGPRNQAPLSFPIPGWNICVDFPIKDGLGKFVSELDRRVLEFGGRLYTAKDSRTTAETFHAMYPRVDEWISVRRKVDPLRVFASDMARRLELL
Test: Inhibition of recombinant Mycobacterium tuberculosis DprE1 expressed in Escherichia coli measured after 120 mins by Amplex Red/peroxidase coupled assay
propertyLabel: pIC50
One number for each entry, as −log10 of the molar value.

Entry CN(CC#Cc1ccccc1)c1nc(=O)c2cc(C(F)(F)F)cc([N+](=O)[O-])c2s1 : reported pIC50 = ?
7.64

Continue with the next molecule.
Entry CN(CC#CC1CCCCC1)c1nc(=O)c2cc(C(F)(F)F)cc([N+](=O)[O-])c2s1 : reported pIC50 = ?
7.74

###

assay: Metabolic stability in NADPH-fortified mouse liver microsomes assessed as CYP450-mediated stability incubated for 120 mins by LC/MS analysis; format: ADME, Microsome; conditions: 2 h
propertyLabel: Stability

Entry CN(CC#Cc1ccccc1)c1nc(=O)c2cc(C(F)(F)F)cc([N+](=O)[O-])c2s1 : reported Stability = ?
Stable

Entry CN(CC#Cc1ccsc1)c1nc(=O)c2cc(C(F)(F)F)cc([N+](=O)[O-])c2s1 : reported Stability = ?
Stable

Entry CN(CC#Cc1cccs1)c1nc(=O)c2cc(C(F)(F)F)cc([N+](=O)[O-])c2s1 : reported Stability = ?
Stable

Entry CN(CC#Cc1cscn1)c1nc(=O)c2cc(C(F)(F)F)cc([N+](=O)[O-])c2s1 : reported Stability = ?
Stable

###

assay: MRT in ICR mouse at 25 micromol/kg, po measured after 24 hrs by LC-MS/MS analysis; assay type: ADME, organism-based; settings: in vivo, dose 25 µmol/kg
Task for the reader: assign each of the following compounds its reported MRT.

Use the examples below as a reference point.
Entry CN(CC#Cc1ccccc1)c1nc(=O)c2cc(C(F)(F)F)cc([N+](=O)[O-])c2s1 : reported MRT = ?
4.35 h

Entry O=c1nc(N2CCN(CC3CCCCC3)CC2)sc2c([N+](=O)[O-])cc(C(F)(F)F)cc12 : reported MRT = ?
2.44 h

Continue with the next compound.
Entry CN(CC#Cc1cscn1)c1nc(=O)c2cc(C(F)(F)F)cc([N+](=O)[O-])c2s1 : reported MRT = ?
7.17 h

###

tested on: Mycobacterium tuberculosis; assay: Antitubercular activity against Mycobacterium tuberculosis H37Rv (ATCC 25618) incubated for […] by MABA assay; format: functional
Mark true for MIC under 0.02 µM, false if at or over.

Answered cases to consult:
Given the entry CN(Cc1cn(-c2ccccc2)nn1)c1nc(=O)c2cc(S(C)(=O)=O)cc([N+](=O)[O-])c2s1 , would its reported MIC be below 0.02 µM?
false

Given the entry CN(CC#Cc1ccsc1)c1nc(=O)c2cc(C(F)(F)F)cc([N+](=O)[O-])c2s1 , would its reported MIC be below 0.02 µM?
true

Given the entry CN(CC#Cc1ccc2c(c1)OCCO2)c1nc(=O)c2cc(C(F)(F)F)cc([N+](=O)[O-])c2s1 , would its reported MIC be below 0.02 µM?
false

Given the entry CN(CC#CCN1CCS(=O)(=O)CC1)c1nc(=O)c2cc(C(F)(F)F)cc([N+](=O)[O-])c2s1 , would its reported MIC be below 0.02 µM?
false

Given the entry CN(CC#Cc1cscn1)c1nc(=O)c2cc(C(F)(F)F)cc([N+](=O)[O-])c2s1 , would its reported MIC be below 0.02 µM?
false

Please look at the following molecule next.
Given the entry CN(C)Cc1ccc(C#CCN(C)c2nc(=O)c3cc(C(F)(F)F)cc([N+](=O)[O-])c3s2)cc1 , would its reported MIC be below 0.02 µM?
false

###

test system: Mycobacterium tuberculosis; test: Antitubercular activity against Mycobacterium tuberculosis H37Rv (ATCC 25618) incubated for […] by MABA assay; format: functional
propertyLabel: MIC (µM)
One number for each entry, in µM.

# map each molecule to its MIC
1. CN(CC#CCN1CC2(COC2)C1)c1nc(=O)c2cc(C(F)(F)F)cc([N+](=O)[O-])c2s1
2. CN(Cc1nnc(-c2ccccc2)o1)c1nc(=O)c2cc(S(C)(=O)=O)cc([N+](=O)[O-])c2s1
3. CN(CC#CCN1CCCC1)c1nc(=O)c2cc(C(F)(F)F)cc([N+](=O)[O-])c2s1

0.423
0.03
0.378

# map each molecule to its MIC
1. CN(CC#Cc1cnsc1)c1nc(=O)c2cc(C(F)(F)F)cc([N+](=O)[O-])c2s1
2. CN1CCC(O)(C#CCN(C)c2nc(=O)c3cc(C(F)(F)F)cc([N+](=O)[O-])c3s2)CC1
3. CN(C/C=C\C1CCCC1)c1nc(=O)c2cc(C(F)(F)F)cc([N+](=O)[O-])c2s1
4. CN1CCN(CC#CCN(C)c2nc(=O)c3cc(C(F)(F)F)cc([N+](=O)[O-])c3s2)CC1
5. CN(CC#Cc1ccccc1)c1nc(=O)c2cc(C(F)(F)F)cc([N+](=O)[O-])c2s1

1: 0.03; 2: 16.9; 3: 0.01; 4: 1.92; 5: 0.007

###

assay: Drug concentration in ICR mouse plasma at 5 micromol/kg, iv measured after 5 mins by LC-MS/MS analysis; assay type: ADME, organism-based; details: dose 5 µmol/kg
propertyLabel: concentration at 5 min (µM)
Answers are plain numbers, in µM.

Use the examples below as a reference point.
Entry CN(CC#Cc1cscn1)c1nc(=O)c2cc(C(F)(F)F)cc([N+](=O)[O-])c2s1 : reported concentration at 5 min = ?
10.3

Entry CN(CC#Cc1ccccc1)c1nc(=O)c2cc(C(F)(F)F)cc([N+](=O)[O-])c2s1 : reported concentration at 5 min = ?
13.5

Continue with the next compound.
Entry O=c1nc(N2CCN(CC3CCCCC3)CC2)sc2c([N+](=O)[O-])cc(C(F)(F)F)cc12 : reported concentration at 5 min = ?
1.39

###

Task for the reader: assign each of the following compounds its reported Tmax.
test: Tmax in ICR mouse at 25 micromol/kg, po measured after 24 hrs by LC-MS/MS analysis; assay type: ADME, organism-based; settings: in vivo, dose 25 µmol/kg
Give bare numbers, in min.

Use the examples below as a reference point.
Entry O=c1nc(N2CCN(CC3CCCCC3)CC2)sc2c([N+](=O)[O-])cc(C(F)(F)F)cc12 [MACOZINONE] : reported Tmax = ?
22.8

Entry CN(CC#Cc1cscn1)c1nc(=O)c2cc(C(F)(F)F)cc([N+](=O)[O-])c2s1 : reported Tmax = ?
60

Continue with the next compound.
Entry CN(CC#Cc1ccccc1)c1nc(=O)c2cc(C(F)(F)F)cc([N+](=O)[O-])c2s1 : reported Tmax = ?
54

###

assay: Aqueous solubility of the compound in PBS buffer at pH 6.82 incubated for 4 hrs by HPLC analysis; format: physicochemical
propertyLabel: solubility at 4 h (µg/mL)
Numbers only, in µg/mL.

Use the examples below as a reference point.
Entry O=c1nc(N2CCN(CC3CCCCC3)CC2)sc2c([N+](=O)[O-])cc(C(F)(F)F)cc12 [MACOZINONE] : reported solubility at 4 h = ?
0.01

Entry CN(CC#Cc1cscn1)c1nc(=O)c2cc(C(F)(F)F)cc([N+](=O)[O-])c2s1 : reported solubility at 4 h = ?
12.8

Continue with the next compound.
Entry CN(CC#Cc1ccccc1)c1nc(=O)c2cc(C(F)(F)F)cc([N+](=O)[O-])c2s1 : reported solubility at 4 h = ?
0.8

###

assay: Elimination half life in ICR mouse at 25 micromol/kg, po measured after 24 hrs by LC-MS/MS analysis; format: ADME, organism-based; conditions: in vivo, dose 25 µmol/kg, read-out: beta t1/2 (converted)
Task for the reader: assign each of the following compounds its reported half-life.
Answers are plain numbers, in h.

Entry CN(CC#Cc1ccccc1)c1nc(=O)c2cc(C(F)(F)F)cc([N+](=O)[O-])c2s1 : reported half-life = ?
2.95

Entry O=c1nc(N2CCN(CC3CCCCC3)CC2)sc2c([N+](=O)[O-])cc(C(F)(F)F)cc12 [MACOZINONE] : reported half-life = ?
1.48

Continue with the next compound.
Entry CN(CC#Cc1cscn1)c1nc(=O)c2cc(C(F)(F)F)cc([N+](=O)[O-])c2s1 : reported half-life = ?
4.77
